- PROTOCOL DESCRIPTION: Stability test (storage at 70° C., 1 bar, content by HPLC)
- Assay type: physicochemical
- CONDITION LABEL: 14 days
A collection of molecules and their measured Stability on storage in an open vessel (relative content by HPLC)

# count of solved cases: 3
> print(dat)
                                   molecule  reported.measurement
1  N=C(N)c1ccc(CNC(=O)[C@@H]2C=CCN2C(=O)[C@@H](CC2CCCCC2)NCC(=O)O)cn1.O=C1NS(=O)(=O)c2ccccc21 [Saccharin salt]      101 HPLC % areas
2  N=C(N)c1ccc(CNC(=O)[C@@H]2C=CCN2C(=O)[C@@H](CC2CCCCC2)NCC(=O)O)cn1.O=C(O)/C=C/C(=O)O [Fumarate]     87.1 HPLC % areas
3  CC1=CC(=O)NS(=O)(=O)O1.N=C(N)c1ccc(CNC(=O)[C@@H]2C=CCN2C(=O)[C@@H](CC2CCCCC2)NCC(=O)O)cn1 [Acesulfame salt]     88,4 HPLC % areas

// CC(=O)O.N=C(N)c1ccc(CNC(=O)[C@@H]2C=CCN2C(=O)[C@@H](CC2CCCCC2)NCC(=O)O)cn1 [Acetate] : Stability on storage in an open vessel (relative content by HPLC) value = 87.2 HPLC % areas
